Values were extracted from patent US20260139048A1.

target_system: T1, human TIGIT expressed on CHO-K1 cells (human, UniProt Q495A1 22-244)
T1 construct: whole, on cells; also called human TIGIT-CHO-K1 cells; human TIGIT over-expressing cell line
T1 sequence (looked up): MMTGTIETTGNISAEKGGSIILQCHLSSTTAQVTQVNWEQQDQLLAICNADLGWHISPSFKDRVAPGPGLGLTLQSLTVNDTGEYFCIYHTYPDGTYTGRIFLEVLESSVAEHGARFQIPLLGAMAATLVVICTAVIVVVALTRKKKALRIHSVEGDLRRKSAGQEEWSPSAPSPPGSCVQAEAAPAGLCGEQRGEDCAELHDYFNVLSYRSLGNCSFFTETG
assay_procedure: flow cytometry competition: biotinylated CD155-Fc on human TIGIT-CHO-K1 cells
measured_quantity: IC50 (nM)
Write the answer as a number in nM, unit excluded.

>>> data_value("huTIGIT-19-2 (antibody, human IgG1, kappa, V domains shown, Humanized IgG; also called 19VH4.M9 + 19VL1.M7) VH: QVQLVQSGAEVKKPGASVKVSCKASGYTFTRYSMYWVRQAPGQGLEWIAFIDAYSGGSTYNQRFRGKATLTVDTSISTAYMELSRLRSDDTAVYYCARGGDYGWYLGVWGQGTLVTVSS VL: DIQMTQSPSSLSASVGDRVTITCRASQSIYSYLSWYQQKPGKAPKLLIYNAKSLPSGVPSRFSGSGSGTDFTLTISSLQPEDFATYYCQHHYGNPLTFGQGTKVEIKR")
0.24
>>> data_value("huTIGIT-19-4 (antibody, human IgG1, kappa, V domains shown, Humanized IgG; also called 19VH4.M10 + 19VL1.M7) VH: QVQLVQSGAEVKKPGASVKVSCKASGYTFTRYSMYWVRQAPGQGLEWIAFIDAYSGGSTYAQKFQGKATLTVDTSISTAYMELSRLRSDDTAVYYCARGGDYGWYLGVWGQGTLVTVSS VL: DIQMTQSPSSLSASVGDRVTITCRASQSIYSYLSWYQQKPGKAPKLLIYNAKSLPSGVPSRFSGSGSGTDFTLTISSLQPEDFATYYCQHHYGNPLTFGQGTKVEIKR")
0.26

Kindly review the next binder as well.
Ask | So what's the measured IC50 for this one? huTIGIT-3-1 (antibody, human IgG1, kappa, V domains shown, Humanized IgG; also called 3VH3.M4 + 3VL4.M6) VH: EVQLVESGGGLVQPGGSLRLSCAASGFTFSSYGMSWVRQAPGKGLELVATIKSSGGSTNLADSVKGRFTISRDNSKNTLYLQMNSLRAEDTAVYYCVRGYFDYWGQGTTVTVSS VL: DIQMTQSPSSLSASVGDRVTITCRASQDIKTALAWYQQKPGKSPKLLIYWASTRQSGVPSRFSGSGSGTDFTLTISSLQPEDVATYYCQQYYSTPYTFGGGTKVEIKR
Reply | 0.502
